Reported composite z-score values for the following compounds.
System: Sam68 (KHDRBS1)
Test: compounds binding KHDRBS1 protein – biochemical, small-molecule microarray, 635 nm fluorescence, primary screen (AID 1125);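 note: score merges 667 nm channel intensity with signal to noise over triplicate slides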
Conditions: higher = more signal
// no unit string in output, number only

Previously resolved entries follow.
Lookup: Supply measured composite z-score of O=C(NCc1ccc(F)cc1)[C@H]1C[C@H]2C(=O)N3CCC[C@H]3C(=O)N2[C@H]1c1ccc(O)cc1 in your reply.
Found: -0.732

Lookup: Entry N#Cc1ccc(NN2C(C(O)C3CC=CCC3)C=CC3C(=O)N(c4ccccc4)C(=O)C32)cc1 (centres undefined) needs its composite z-score filled in; supply it.
Found: 1.32

Lookup: Identify measured composite z-score corresponding to CCN(CC)c1ccc(N2CC=CC34O[C@@H]5C=CCCOC(=O)C5[C@H]3C(=O)N(C(C)CO)[C@@H]4C2=O)cc1 (some centres undefined)
Found: -0.304

Lookup: Note down composite z-score recorded for C=CCNC(=O)[C@@H]1[C@H]2C(=O)O[C@H](c3ccccc3)[C@H](c3ccccc3)N2[C@H](c2ccc(OCCO)cc2)[C@@]12C(=O)Nc1ccc(C#CC3(O)CCCCCC3)cc12
Found: 1.3

New cases:
Lookup: Could you please provide reported composite z-score for NC(=O)NCC#Cc1ccc2c(c1)[C@]1(C(=O)N2)[C@H](c2ccc(OCCO)cc2)N2[C@H](c3ccccc3)[C@H](c3ccccc3)OC(=O)[C@H]2[C@@H]1C(=O)NC[C@H](O)c1ccccc1 ? Thanks!
Found: -0.449

Lookup: Please indicate composite z-score recorded for CCOC(=O)C1=CC[C@@H](c2ccccc2)N(S(=O)(=O)c2ccc(C)cc2)[C@H]1c1ccccc1I
Found: 0.875

Lookup: # return recorded composite z-score for entry C=C(COC)C(=O)CC[C@H](OC(=O)c1cccnc1)c1ccc(OCCO)cc1
Found: 1.14

Lookup: Tell us which composite z-score value is on record for O=C1C[C@@](C(=O)O)(c2ccc([N+](=O)[O-])cc2)[C@@H](c2ccc(CO)cc2)N1C1CCCCC1
Found: 1.34

Lookup: Indicate its recorded composite z-score; the compound in question is CN(C)CCCC[C@@H]1NC(=O)[C@H]2C[C@@H](C(=O)O)[C@@H](c3ccc(O)cc3)N2C1=O
Found: 1.33

Lookup: Kindly indicate its recorded composite z-score. Item: COc1ccccc1CN1C(=O)c2ccccc2[C@](Cc2ccccc2I)(C(=O)NCC(C)C)[C@@H]1c1ccc(CO)cc1
Found: 0.781

Lookup: Using known records, supply composite z-score for C=CCN1C(=O)[C@]2(O[C@H](CCn3cc([C@H](O)c4ccccc4)nn3)[C@@H]([Si](C)(C)c3ccc(OC)cc3)[C@@H]2C)c2cc(NC(=O)c3ccc(OC)cc3)ccc21
Found: 0.867

Lookup: Return composite z-score for the following compound: C[N+](C)(C)CCCC[C@@H]1NC(=O)[C@H]2C[C@@H](C(=O)NCCCCCNC(=O)CS)[C@@H](c3cccc(OCCO)c3)N2C1=O
Found: 0.165

Lookup: Please give the documented composite z-score of Cc1ccc(N2C(=O)c3ccccc3[C@](C)(C(=O)NCCCN(C)C)[C@@H]2c2ccc(CO)cc2)nc1
Found: 0.276

* * *

Assay: optical density change of DRC41 E. coli – strain DRC41, OD650, 24 h, E. coli filamentation project, primary screen (AID 1093);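 note: MC1000 strain lacking acrAB efflux and sulA so SOS filamentation is blocked; test concentration not given here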
Settings: E. coli DRC41 growth, higher = more signal, called active from +8 up or from −8 down
PARAMETER MEASURED: z-score
Give the figure by itself; no unit, no explanation.

Here is how some compounds turned out for z-score.
Lookup: Given the compound N#Cc1ccc(NN2C(C(O)C3CC=CCC3)C=CC3C(=O)N(c4ccccc4)C(=O)C32)cc1 (stereo not drawn) , write its reported z-score.
Found: -0.645

Lookup: Look up z-score of CC(C)(C)OC(=O)CC[C@@]1(C(=O)NCCN2CCOCC2)N=C(c2ccc(OCCCO)cc2)O[C@@H]1c1ccccc1CN=[N+]=[N-] and report it.
Found: -1.07

Lookup: Entry CCCCC(O)C1C=CC2C(=O)N(c3ccccc3)C(=O)C2N1Nc1ccc(C#N)cc1 (stereo not drawn) needs its z-score filled in; supply it.
Found: -1.11

// moving on: another record for z-score
Lookup: Retrieve z-score measured for CCOC(=O)C1=CC[C@@H](c2ccc(OC)cc2)N(S(=O)(=O)c2ccc(C)cc2)[C@H]1CC and print it.
Found: 0.66

* * *

The following compounds are listed with their measured z-score values.
Target: NADPH oxidase 5 (Homo sapiens) (UniProt Q96PH1)
Sequence (Q96PH1 whole entry, looked up): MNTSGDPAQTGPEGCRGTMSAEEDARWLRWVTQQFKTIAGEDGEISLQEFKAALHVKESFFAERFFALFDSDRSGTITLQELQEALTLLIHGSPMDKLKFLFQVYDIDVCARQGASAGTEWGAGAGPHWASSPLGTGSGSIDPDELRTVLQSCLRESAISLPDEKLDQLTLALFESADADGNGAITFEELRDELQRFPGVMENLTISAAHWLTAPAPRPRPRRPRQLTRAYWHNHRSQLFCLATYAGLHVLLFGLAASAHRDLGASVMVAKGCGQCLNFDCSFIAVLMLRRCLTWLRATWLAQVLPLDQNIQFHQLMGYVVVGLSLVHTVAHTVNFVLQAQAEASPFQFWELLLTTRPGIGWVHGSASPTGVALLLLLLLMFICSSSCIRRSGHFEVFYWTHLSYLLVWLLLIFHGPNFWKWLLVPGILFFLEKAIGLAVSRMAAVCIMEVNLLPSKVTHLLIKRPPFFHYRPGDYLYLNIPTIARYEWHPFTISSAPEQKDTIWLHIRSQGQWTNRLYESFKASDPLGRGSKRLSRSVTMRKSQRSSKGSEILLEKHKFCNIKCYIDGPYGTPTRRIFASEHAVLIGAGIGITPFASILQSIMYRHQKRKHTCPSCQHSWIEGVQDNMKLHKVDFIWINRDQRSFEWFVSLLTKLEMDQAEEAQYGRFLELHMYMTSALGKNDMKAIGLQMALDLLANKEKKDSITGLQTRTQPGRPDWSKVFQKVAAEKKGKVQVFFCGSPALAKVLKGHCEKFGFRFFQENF
Experiment: compounds shifting NOX5 Amplex Red fluorescence – cell-based, HEK293-NOX5, NOX inhibitor project, primary screen (AID 1161)
Conditions: HEK293-NOX5, ionomycin, 45 min, higher = more signal
// no unit string in output, number only

Lookup: Fill: z-score (NADPH oxidase 5 (Homo sapiens) (UniProt Q96PH1)) for this compound COc1ccc(C(=O)Nc2ccc3c(c2)[C@@]2(O[C@H](CCO)[C@@H]([Si](C)(C)c4ccc(OC)cc4)[C@@H]2C)C(=O)N3Cc2ccccc2)cc1
Found: 0.371

Lookup: Send back NADPH oxidase 5 (Homo sapiens) (UniProt Q96PH1) z-score of COc1ccc([Si](C)(C)[C@@H]2[C@@H](CC(=O)N3Cc4ccccc4C[C@H]3CO)O[C@]3(C(=O)N(Cc4cccc(N5CCOC5=O)c4)c4ccccc43)[C@H]2C)cc1 only.
Found: -1.02

Lookup: Provide the reported z-score (system: NADPH oxidase 5 (Homo sapiens) (UniProt Q96PH1)) for COC(=O)[C@@]1(Cc2ccc(F)cc2)[C@H]2c3cc(C(=O)N(C)C)n(CCc4ccc(O)c(O)c4)c3C[C@H]2CN1C(=O)c1ccccc1
Found: -0.966

Others:
Lookup: Name the value of z-score reported for O=C1O[C@@H](c2ccccc2)[C@@H](c2ccccc2)N2[C@@H](c3ccc(OCCO)cc3)[C@]3(C(=O)Nc4ccc(C#CC5(O)CCCCCC5)cc43)[C@@H](C(=O)O)[C@H]12 when tested on NADPH oxidase 5 (Homo sapiens) (UniProt Q96PH1).
Found: 0.314

Lookup: Output reported z-score of the compound O=C1O[C@@H](c2ccccc2)[C@@H](c2ccccc2)N2[C@@H](c3ccc(OCCO)cc3)[C@]3(C(=O)Nc4ccc(C#CCCO)cc43)[C@@H](C(=O)O)[C@H]12 on NADPH oxidase 5 (Homo sapiens) (UniProt Q96PH1).
Found: 1.1

Lookup: Answer briefly: z-score recorded on NADPH oxidase 5 (Homo sapiens) (UniProt Q96PH1) for C=CCOC(=O)[C@@H]1[C@H]2C(=O)O[C@H](c3ccccc3)[C@H](c3ccccc3)N2[C@H](c2ccc(OCCOC(=O)[C@H]3C[C@H]4C(=O)N[C@@H](CCCCN(C)C)C(=O)N4[C@H]3c3ccc(O)cc3)cc2)[C@@]12C(=O)Nc1ccc(I)cc12
Found: 0.946

Lookup: Fetch value of z-score on NADPH oxidase 5 (Homo sapiens) (UniProt Q96PH1) for Cc1ccc(S[C@]2(C(=O)NC(C)C)CC(=O)N(C3CCCCC3)[C@@H]2c2ccc(CO)cc2I)cc1 .
Found: 1.89

Lookup: Please look at C[C@@H]1NC(=O)C([C@@H](C)OCc2ccccc2)NC(=O)[C@@]23C(=O)N[C@@H](Cc4ccccc4)C2[C@H](C)[C@@]2(C)O[C@H]2C3/C=C/C/C=C\CNC1=O (some centres not stated) and tell me its recorded z-score on NADPH oxidase 5 (Homo sapiens) (UniProt Q96PH1).
Found: 0.467

Lookup: Give z-score for this entry on NADPH oxidase 5 (Homo sapiens) (UniProt Q96PH1): COc1ccc(C(=O)Nc2ccc(CN3C(=O)[C@@]4(O[C@@H](CCn5cc(CCO)nn5)[C@H]([Si](C)(C)c5ccc(OC)cc5)[C@H]4C)c4ccccc43)cc2)cc1
Found: 3.12

Lookup: Provide z-score, recorded with NADPH oxidase 5 (Homo sapiens) (UniProt Q96PH1), of COC(=O)[C@@]1(Cc2ccc(OC)cc2)[C@H]2c3cc(C(=O)N4CCCC4)n(Cc4ccc(Cl)c(C(F)(F)F)c4)c3C[C@H]2CN1C(=O)c1ccccc1
Found: -4.74

Lookup: Enter recorded z-score with NADPH oxidase 5 (Homo sapiens) (UniProt Q96PH1) for CCCCC(O)C1C=CC2C(=O)N(c3ccccc3)C(=O)C2N1Nc1ccc([N+](=O)[O-])cc1 (configuration not stated) here.
Found: -0.302

Lookup: Please tell me the measured z-score for CCCCN1CC=CC23O[C@@H]4/C=C\CCCOC(=O)C4[C@H]2C(=O)N(C(CO)C(C)C)[C@@H]3C1=O (some centres not stated) ; system: NADPH oxidase 5 (Homo sapiens) (UniProt Q96PH1).
Found: 1.69

Lookup: Report z-score on NADPH oxidase 5 (Homo sapiens) (UniProt Q96PH1) for this entry: CN1C(=O)C2C(C1=O)C1C=C(c3ccc(CO)cc3)C2C(C2CC2)N1C (configuration not stated)
Found: 0.163

Lookup: Would you please give the reported z-score of C[N+](C)(C)CCCC[C@@H]1NC(=O)[C@H]2C[C@@H](C(=O)NCCCCCNC(=O)CS)[C@@H](c3cccc(OCCO)c3)N2C1=O with NADPH oxidase 5 (Homo sapiens) (UniProt Q96PH1)?
Found: 1.35

Lookup: Would you please give the reported z-score of COC(=O)[C@@]1(Cc2ccc(F)cc2)[C@H]2c3cc(C(=O)N4CCCC4)n(Cc4ccccn4)c3C[C@H]2CN1C(=O)c1ccccc1 with NADPH oxidase 5 (Homo sapiens) (UniProt Q96PH1)?
Found: -2.47

Lookup: Please indicate recorded z-score of C=C(COC)C(=O)CC[C@H](OC(=O)c1cccnc1)c1ccc(OCCO)cc1 measured with NADPH oxidase 5 (Homo sapiens) (UniProt Q96PH1).
Found: -1.26
